src = patent US20170009093A1

assay: water-octanol partition coefficient (log P), OECD Test Guideline 107; format: physicochemical; details: octanol/water; OECD Test Guideline 107
endpoint name: logP

Guide cases for logP, answers given:
Cc1cccc(OCC(O)CO)c1 (stereo not drawn) [3-(3-methylphenoxy)-1,2-propanediol]; 1.21
OCC(O)COCc1ccccc1 (stereo not drawn) [3-benzyloxy-1,2-propanediol]; 0.88
CCCCCC(O)CO (stereo not drawn) [1,2-heptanediol]; 1
COc1ccc(COCC(O)CO)cc1 (stereo not drawn) [3-(4-methoxybenzyloxy)-1,2-propanediol]; 0.8
CCCCC(O)CO (stereo not drawn) [1,2-hexanediol]; 0.7
CC(O)(CO)COc1ccccc1 (stereo not drawn) [2-methyl-3-phenoxy-1,2-propanediol]; 1.1

a: OCC(O)COc1ccccc1 (stereo not drawn) [phenyl glyceryl ether]
b: OCC(CO)(CO)COc1ccccc1
In: Would you mind telling me which has the lower recorded logP between a and b ? Response format: the label of the selected entry.
Out: a
